Task for the reader: assign each of the following compounds its reported inhibition.
system: Saccharomyces cerevisiae; test: Percentage inhibition of Alpha-glucosidase from Baker yeast (isomaltase) at 1 mM
One number for each entry, in %.

Below are worked cases with known answers.
Query :: Answer with reported inhibition of OC1CNC(CNCc2cccs2)C1O (stereo not drawn)
Result :: 23

Query :: Answer with reported inhibition of OC1CNC(CNC2CCCC2)C1O (stereo not drawn)
Result :: 92

Could you now consider this next compound?
Query :: Answer with reported inhibition of OC1CNC(CNCC2CCN(Cc3ccccc3)CC2)C1O (stereo not drawn)
Result :: 90

* * *

tested on: Alpha-mannosidase (Prunus dulcis); test: Percentage inhibition of Alpha-mannosidase from Almond at 1 mM
inhibition vs 50%: at or above is satisfied, below is not satisfied.

Query :: Entry C[C@@H](NCC1NCC(O)C1O)c1ccccc1 (stereo partly drawn) : is its inhibition no less than 50%?
Result :: not satisfied

Query :: Entry OC1CNC(CNCc2cccs2)C1O (stereo not drawn) : is its inhibition no less than 50%?
Result :: satisfied

Query :: Entry CC(NCC1NCC(O)C1O)C(O)(c1ccccc1)c1ccccc1 (stereo not drawn) : is its inhibition no less than 50%?
Result :: not satisfied

Query :: Entry OC1CNC(CNCn2ccnc2)C1O (stereo not drawn) : is its inhibition no less than 50%?
Result :: satisfied

Query :: Entry OC1CNC(CNCc2ccco2)C1O (stereo not drawn) : is its inhibition no less than 50%?
Result :: not satisfied

Query :: Entry OC1CNC(CNC2CCCC2)C1O (stereo not drawn) : is its inhibition no less than 50%?
Result :: satisfied

Query :: Entry OC1CNC(CNCC2CCN(Cc3ccccc3)CC2)C1O (stereo not drawn) : is its inhibition no less than 50%?
Result :: satisfied

* * *

Task for the reader: assign each of the following compounds its reported IC50.
test: Inhibitory activity towards Beta-galactosidase from Aspergillus oryzae
Give bare numbers, in µM.

Query :: Answer with reported IC50 of OC(O)CC1NCC(O)C1O (configuration not stated)
Result :: 75

Could you now consider this next compound?
Query :: Answer with reported IC50 of `O[C@@H]1CNC[C@@H]1O`
Result :: 790

* * *

Biological target: Beta-galactosidase (Bos taurus)
Sequence (Q58D55 whole entry): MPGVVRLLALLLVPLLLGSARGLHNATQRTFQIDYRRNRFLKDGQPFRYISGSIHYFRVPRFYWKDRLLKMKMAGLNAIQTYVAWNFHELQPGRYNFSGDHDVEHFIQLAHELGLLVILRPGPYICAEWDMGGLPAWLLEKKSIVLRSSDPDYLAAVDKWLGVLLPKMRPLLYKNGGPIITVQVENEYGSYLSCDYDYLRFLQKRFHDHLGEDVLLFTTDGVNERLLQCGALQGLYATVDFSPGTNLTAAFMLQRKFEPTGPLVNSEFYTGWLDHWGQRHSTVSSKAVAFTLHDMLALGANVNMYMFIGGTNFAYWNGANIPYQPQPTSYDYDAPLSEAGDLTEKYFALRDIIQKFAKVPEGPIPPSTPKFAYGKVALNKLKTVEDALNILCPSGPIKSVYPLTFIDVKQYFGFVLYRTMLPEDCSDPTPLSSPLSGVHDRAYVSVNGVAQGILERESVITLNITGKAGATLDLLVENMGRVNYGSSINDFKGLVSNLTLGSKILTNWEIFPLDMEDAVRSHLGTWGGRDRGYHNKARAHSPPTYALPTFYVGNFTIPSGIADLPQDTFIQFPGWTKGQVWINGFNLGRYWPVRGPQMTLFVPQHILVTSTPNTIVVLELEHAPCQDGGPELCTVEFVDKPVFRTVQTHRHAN
assayReadout: pIC50
Numbers only, as −log10 of the molar value.

Query :: Answer with reported pIC50 of CC(NCC1NCC(O)C1O)C(O)(c1ccccc1)c1ccccc1 (stereo unspecified)
Result :: 3.85
